- System: IGROV1 ovarian
- experimentSummary: NCI tumour cell line growth inhibition, 48 h
Entries and their measured TGI follow.

# count of solved cases: 8
>  <compound>
Cc1ccc2nc(Cl)c(/C=N/N3C(=O)/C(=C/Cc4ccco4)N=C3c3ccccc3)cc2c1

>  <readoutValue>
53.9 µM

$$$$
>  <compound>
N.N.N.N.O=S(=O)([O-])[O-].[Co+3].[OH3+].[OH3+]

>  <readoutValue>
> 100 µM

$$$$
>  <compound>
O=C(O)c1cn(C2CC2)c2cc(N3CCN(C(=O)Nc4nc(-c5ccc(Cl)cc5)cs4)CC3)c(F)cc2c1=O

>  <readoutValue>
> 100 µM

$$$$
>  <compound>
C/C(CN1C(=O)c2ccccc2C1=O)=N\NS(C)(=O)=O

>  <readoutValue>
> 100 µM

$$$$
>  <compound>
CC[C@@H]1C[C@@H](O)[C@@H]2[C@H](O)[C@H](O)CN2C1

>  <readoutValue>
> 100 µM

$$$$
>  <compound>
CCN(CC)CCCC(C)Nc1ccnc2cc(Cl)c(SCc3ccccc3)cc12 (centres undefined)

>  <readoutValue>
4.95 µM

$$$$
>  <compound>
CC(=O)O[C@H]1C(=O)[C@@]2(C)[C@H]([C@H](OC(=O)c3ccncc3)[C@]3(O)C[C@H](OC(=O)[C@H](O)[C@@H](NC(=O)c4ccccc4)c4ccccc4)C(C)=C1C3(C)C)[C@]1(OC(C)=O)CO[C@@H]1C[C@@H]2O

>  <readoutValue>
> 25 µM

$$$$
>  <compound>
COC(=O)/C(Cl)=C1/CC1COCc1ccccc1 (centres undefined)

>  <readoutValue>
> 100 µM

$$$$

Okay, next one:
Form field TGI, entry Nc1nc(Cl)cc(NCC2(CO)CCC(OCc3ccccc3)C2)n1 (centres undefined) : > 100 µM

---

- Test system: LOX IMVI melanoma
- experimentSummary: NCI tumour cell line growth inhibition, 48 h; in the data active = GI50 below about 0.43 µM; inactive = the rest
Give your call using only these classes: t (active), f (inactive)

For orientation, consider the following solved cases.
>  <compound>
Cc1cc(Cl)ccc1Nc1nc(C(F)(F)F)ccc1C(=O)N/N=C/c1ccc(F)cc1

>  <labelValue>
f

$$$$
>  <compound>
COc1cccc(-c2cc(NCc3ccc4c(c3)OCO4)nc(N)n2)c1

>  <labelValue>
t

$$$$

Below: the item to evaluate.
Query string: Assay result, entry OCCCNC(=S)Nc1ccc(-c2nc3ccccc3s2)cc1 — outcome?
Result string: f

---

- System: MCF7 breast
- experimentSummary: NCI tumour cell line growth inhibition, 48 h
Entries and their measured TGI follow.

# count of solved cases: 5
>  <molecule>
CC(=O)OCC(OC(C)=O)C(OC(C)=O)C(OC(C)=O)C(/C=N\Nc1nc2ccccc2c(=O)[nH]1)OC(C)=O (centres undefined)

>  <readoutValue>
> 100 µM

$$$$
>  <molecule>
O=C(O)CCCC#CCCCC(=O)O

>  <readoutValue>
> 100 µM

$$$$
>  <molecule>
[O-][n+]1onc2c1-c1nonc1CC2

>  <readoutValue>
> 100 µM

$$$$
>  <molecule>
COc1ccc(/C=C/C(=O)c2ccc(NC(=O)CSc3nnc(-c4cc(OC)c(OC)c(OC)c4)o3)cc2)cc1

>  <readoutValue>
3.68 µM

$$$$
>  <molecule>
N=C1N=Nc2nc(C3(c4nc5n(c4O)C(=N)N=N5)Cc4ccccc4C3=O)c(O)n21 (centres undefined)

>  <readoutValue>
> 100 µM

$$$$

Let me check: N=C(N)c1ccc(-c2ccc(-c3ccc(C(=N)N)cc3)o2)cc1 , system MCF7 breast, measured TGI is > 100 µM

Let me check: CC(=O)OCC1OC(OC2CC3C(C)(C)C(=O)CC[C@]3(C)C3CC[C@]45C[C@]4(CCC5[C@@H](C)CC(O)C(O)C(C)(C)O)[C@]23C)C(O)C(O)C1O (some centres undefined) , system MCF7 breast, measured TGI is 16.7 µM

Let me check: COc1ccc(-c2oncc2-c2cc(OC)c3c(c2)OCO3)cc1 , system MCF7 breast, measured TGI is > 100 µM

Let me check: COc1cc(C2SC(N)=Nc3c2c(C)nn3C(=O)Cc2ccccc2)ccc1O (centres undefined) , system MCF7 breast, measured TGI is > 100 µM

---

- System: 786-0 renal
- experimentSummary: NCI tumour cell line growth inhibition, 48 h
recordedMetric: TGI

# count of solved cases: 3
>  <compound>
O=C1/C(=C/c2ccc(O)cc2)CCc2ccccc21

>  <TGI>
39.1 µM

$$$$
>  <compound>
COC(C(=O)[C@@H](O)[C@@H](C)O)[C@@H]1Cc2cc3cc(O[C@H]4C[C@@H](O[C@H]5C[C@@H](O)[C@H](O)C(C)O5)[C@H](O)C(C)O4)c(C)c(O)c3c(O)c2C(=O)[C@H]1O[C@H]1C[C@@H](O[C@H]2C[C@@H](O[C@H]3C[C@@H](O)[C@@H](O)C(C)O3)[C@@H](O)C(C)O2)[C@H](O)C(C)O1 (stereo partly specified)

>  <TGI>
> 32.5 µM

$$$$
>  <compound>
CC[C@]12C=CCN3CCC4(c5cc(N=Nc6ccc([N+](=O)[O-])cc6)c(OC)cc5N(C)[C@H]4[C@@](O)(C(=O)OC)[C@@H]1OC(C)=O)[C@@H]32 (stereo partly specified)

>  <TGI>
25.1 µM

$$$$

Okay, next one:
Form field TGI, entry Cc1cccc2c(=O)c3c(sc12)c(NCCN)nc1ccccc13 : 1.69 µM

---

- System: SF-295 CNS
- experimentSummary: NCI tumour cell line growth inhibition, 48 h
recordedMetric: TGI

>  <structureSmiles>
CC1=C/C(=C(/c2ccc(O)c(C)c2)c2ccccc2C(=O)O)C=CC1=O

>  <TGI>
44.2 µM

$$$$

Form field TGI, entry NS(=O)(=O)c1ccc(NCc2cnc3ccccc3c2)cc1 : > 100 µM

Form field TGI, entry CC(C)(C)OC(=O)N1C(=O)OC[C@@H]2C=C[C@@H]21 : > 100 µM

Form field TGI, entry CCC(/C=C/c1ccccc1)=N\N=C(\C=C\c1ccccc1)CC : > 100 µM

Form field TGI, entry [O-][N+]1=C(c2ccccc2)COc2ccccc21 : > 100 µM

Form field TGI, entry COc1ccc(/C=C/C(=O)c2ccc(NC(=O)CSc3nnc(-c4cc(OC)c(OC)c(OC)c4)o3)cc2)cc1 : 3.35 µM

---

- System: T-47D breast
- experimentSummary: NCI tumour cell line growth inhibition, 48 h
Entries and their measured TGI follow.
Numeric only. Scale: µM

# count of solved cases: 2
>  <molecule>
O=C(Nc1cccc2ccccc12)c1cc2ccccc2cc1O

>  <experimentalTarget>
T-47D breast

>  <TGI / µM>
18.7

$$$$
>  <molecule>
O=C1c2ccc3ccccc3c2CCC1N1CCCCC1 (stereo not given)

>  <experimentalTarget>
T-47D breast

>  <TGI / µM>
54.3

$$$$

Let me check: COC(=O)C12OCC34C(CC5C(C)=CC(=O)C(O)C5(C)C3C(O)C1O)OC(=O)C(OC(=O)CC(C)C)C24 (stereo not given) , system T-47D breast, measured TGI is 0.006

Let me check: CCCCN1C(=O)C[C@H]2[C@@H]3CCc4cc(OCCN5CCCC5)ccc4[C@H]3CC[C@]2(C)C1=O , system T-47D breast, measured TGI is 30.4

Let me check: COc1cccc(-c2cc(NCc3ccc4c(c3)OCO4)nc(N)n2)c1 , system T-47D breast, measured TGI is 50.6

Let me check: COc1ccc(C2Oc3c(cccc3OC)C=C2[N+](=O)[O-])cc1 (stereo not given) , system T-47D breast, measured TGI is 27.7

Let me check: CC(C)(Cc1ccccc1)Cc1cc(O)ccc1O , system T-47D breast, measured TGI is 23.1

Let me check: COc1ccc2c(c1)N(CCC1CCCCN1C)c1ccccc1S2 (stereo not given) , system T-47D breast, measured TGI is 26.3

Let me check: Cn1cc(-c2nc(-c3cn(C)c4ncccc34)cs2)c2cc(F)ccc21 , system T-47D breast, measured TGI is 23.2

---

- System: HCC-2998 colon
- experimentSummary: NCI tumour cell line growth inhibition, 48 h
recordedMetric: GI50

Let me check: N#CC(C#N)=Cc1ccc(-c2ccc(-c3nc4ccccc4s3)cc2)s1 , system HCC-2998 colon, measured GI50 is 27.9 µM

---

- Test system: SNB-19 CNS
- experimentSummary: NCI tumour cell line growth inhibition, 48 h
recordedMetric: TGI

# count of solved cases: 5
>  <molecule>
COc1cc([C@@H]2c3cc4c(cc3[C@@H](NC(=O)c3ccc([N+](=O)[O-])cc3)C3COC(=O)[C@@H]32)OCO4)cc(OC)c1O (some centres not stated)

>  <readoutValue>
6.06 µM

$$$$
>  <molecule>
OCCCNC(=S)Nc1ccc(-c2nc3ccccc3s2)cc1

>  <readoutValue>
> 100 µM

$$$$
>  <molecule>
Cn1c(C2CC(C)(C)c3c2c2ccccc2n3C)cc2ccccc21 (configuration not stated)

>  <readoutValue>
> 304 µM

$$$$
>  <molecule>
CC(=O)/C=C/c1ccc(N(C)Cc2ccc(C(C)(C)C)cc2)cc1

>  <readoutValue>
699 µM

$$$$
>  <molecule>
CCCCN1C(=O)C[C@H]2[C@@H]3CCc4cc(OCCN5CCCC5)ccc4[C@H]3CC[C@]2(C)C1=O

>  <readoutValue>
26.5 µM

$$$$

Form field TGI, entry COC(=O)CCC(=O)C(C#N)c1ccc(Cl)cc1Cl (configuration not stated) : > 100 µM

Form field TGI, entry C=CCn1c(=S)sc2c(=O)[nH]cnc21 : > 100 µM

Form field TGI, entry COc1ccc(OC)c(/C=C/c2cnnc3ccccc23)c1 : > 10 µM

Form field TGI, entry CC[C@@H]1C[C@@H](O)[C@@H]2[C@H](O)[C@H](O)CN2C1 : > 100 µM
